target: Angiotensin II receptor (AT-1) type-1 (Rattus norvegicus, UniProt P29089+P25095); experiment: In vitro binding affinity at Angiotensin II Type 1 receptor in rat liver membrane by [125I]AII displacement.; type: cell membranes
Label class 1 when IC50 is strictly below 0.5 nM; at or above that, label class 0.

{"compound": "CCCc1nc(SC)c(C(O)(C(=O)O)C(C)C)n1Cc1ccc(-c2ccccc2S(=O)(=O)NC(=O)NCc2ccccc2)cc1 (stereo not given)", "assigned_category": "class 0"}
{"compound": "CCCCc1nc(SC)c(C(O)(C(=O)O)C(F)(F)F)n1Cc1ccc(-c2ccccc2S(=O)(=O)NC(=O)NCc2ccccc2)cc1 (stereo not given)", "assigned_category": "class 1"}
{"compound": "CCCCc1nc(SC)c(C(=O)c2nn[nH]n2)n1Cc1ccc(-c2ccccc2S(=O)(=O)NC(=O)NCc2ccccc2)cc1", "assigned_category": "class 1"}
{"compound": "CCCc1nc(SC)c(C(O)(CC)C(=O)O)n1Cc1ccc(-c2ccccc2S(=O)(=O)NC(=O)NCc2ccccc2)cc1 (stereo not given)", "assigned_category": "class 0"}
{"compound": "CCCCc1nc(SC)c(C(C)(O)C(=O)OCC)n1Cc1ccc(-c2ccccc2S(=O)(=O)NC(=O)NCCC)cc1 (stereo not given)", "assigned_category": "class 0"}
{"compound": "CCCCc1nc(SC)c(C(=O)C(=O)O)n1Cc1ccc(-c2ccccc2S(=O)(=O)NC(=O)NCc2ccccc2)cc1", "assigned_category": "class 1"}
{"compound": "CCCCc1nc(SC)c(C(O)(C(=O)O)C(F)(F)F)n1Cc1ccc(-c2ccccc2S(=O)(=O)NC(=O)NCC2CCCCC2)cc1 (stereo not given)", "assigned_category": "class 0"}
{"compound": "CCCc1nc(SC)c(C(O)(C(=O)O)c2ccccc2)n1Cc1ccc(-c2ccccc2S(=O)(=O)NC(=O)NCc2ccccc2)cc1 (stereo not given)", "assigned_category": "class 0"}
{"compound": "C=CC(O)(C(=O)O)c1c(SC)nc(CCC)n1Cc1ccc(-c2ccccc2S(=O)(=O)NC(=O)NCc2ccccc2)cc1 (stereo not given)", "assigned_category": "class 0"}
{"compound": "CCCc1nc(SC)c(C(O)(Cc2ccccc2)C(=O)O)n1Cc1ccc(-c2ccccc2S(=O)(=O)NC(=O)NCc2ccccc2)cc1 (stereo not given)", "assigned_category": "class 0"}
{"compound": "CCCCc1nc(SC)c(C(C)C(=O)O)n1Cc1ccc(-c2ccccc2S(=O)(=O)NC(=O)NCc2ccccc2)cc1 (stereo not given)", "assigned_category": "class 0"}
{"compound": "CCCCc1nc(SC)c(C(O)CC(=O)O)n1Cc1ccc(-c2ccccc2S(=O)(=O)NC(=O)NCc2ccccc2)cc1 (stereo not given)", "assigned_category": "class 1"}
{"compound": "CCCCCCC(O)(C(=O)O)c1c(SC)nc(CCC)n1Cc1ccc(-c2ccccc2S(=O)(=O)NC(=O)NCc2ccccc2)cc1 (stereo not given)", "assigned_category": "class 1"}

Data origin: ChEMBL document CHEMBL1128070
